biological target: Mitogen-activated protein kinase kinase kinase kinase 2 (Homo sapiens); type: functional;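 further: measured as one member of a kinome-wide kinase panel, with MAP4K2 as the panel entry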
Sequence (Q12851 whole entry): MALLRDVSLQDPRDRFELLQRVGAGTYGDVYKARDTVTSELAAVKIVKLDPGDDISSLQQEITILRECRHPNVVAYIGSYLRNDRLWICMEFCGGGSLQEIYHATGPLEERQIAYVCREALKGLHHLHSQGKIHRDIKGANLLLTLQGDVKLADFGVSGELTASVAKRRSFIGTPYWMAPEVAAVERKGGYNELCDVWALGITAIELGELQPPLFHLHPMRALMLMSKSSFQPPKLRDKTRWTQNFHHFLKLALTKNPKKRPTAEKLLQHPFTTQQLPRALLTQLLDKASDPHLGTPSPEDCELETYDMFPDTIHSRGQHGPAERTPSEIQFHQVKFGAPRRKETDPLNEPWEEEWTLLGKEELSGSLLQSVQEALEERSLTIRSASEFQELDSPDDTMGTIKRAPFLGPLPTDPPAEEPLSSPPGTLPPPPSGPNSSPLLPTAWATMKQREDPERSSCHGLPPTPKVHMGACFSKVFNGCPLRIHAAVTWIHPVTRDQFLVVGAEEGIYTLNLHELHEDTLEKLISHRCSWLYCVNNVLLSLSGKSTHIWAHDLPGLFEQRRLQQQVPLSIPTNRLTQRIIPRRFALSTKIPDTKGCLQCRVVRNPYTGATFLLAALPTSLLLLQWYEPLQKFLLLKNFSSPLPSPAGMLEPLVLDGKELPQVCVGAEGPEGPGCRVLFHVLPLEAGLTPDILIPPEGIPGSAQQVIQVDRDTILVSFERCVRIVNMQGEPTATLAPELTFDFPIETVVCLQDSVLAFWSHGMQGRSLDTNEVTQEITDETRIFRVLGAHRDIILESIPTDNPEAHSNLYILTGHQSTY
Calls of active or inactive are those of the source.
The categories you may choose from are yes (1) (active), no (0) (inactive)

Worked set:
O=c1[nH]c2cc(Br)cnc2[nH]1    yes (1)
CCC1CC(NS(=O)(=O)C2CC2)CC1c1ncc2cnc3[nH]ccc3n12 (centres undefined)    no (0)
O=C(Nc1cccc(C(F)(F)F)n1)Nc1ccnc2cc(Cl)ccc12    no (0)

Let us examine a further case.
Task: Hi, do you know how O=C(Nc1cccc(C(F)(F)F)n1)Nc1ccnc2cc(OC(F)F)ccc12 came out in this test?
Output: no (0)

====

target: cAMP-dependent protein kinase catalytic subunit alpha (Homo sapiens, UniProt P17612); type: functional
The source made the active and inactive calls.
Listed next: entries and their corresponding Ki.

// solved cases for Ki follow
CCC1CC(NS(=O)(=O)C2CC2)CC1c1ncc2cnc3[nH]ccc3n12 (centres undefined)    0.2 µM (active)
O=c1[nH]c2cc(Br)cnc2[nH]1    > 50.1 µM (inactive)
O=C(Nc1cccc(C(F)(F)F)n1)Nc1ccnc2cc(Cl)ccc12    > 1.26 µM (inactive)

Task: Entry O=c1cc(-c2ccc(F)cc2)[nH]c2c(-c3ccc(F)cc3)cnn12 has what Ki?
Output: > 7.94 µM (inactive)

====

target: cAMP-dependent protein kinase catalytic subunit PRKX (Homo sapiens, UniProt P51817); format: functional
Sequence (P51817 whole entry): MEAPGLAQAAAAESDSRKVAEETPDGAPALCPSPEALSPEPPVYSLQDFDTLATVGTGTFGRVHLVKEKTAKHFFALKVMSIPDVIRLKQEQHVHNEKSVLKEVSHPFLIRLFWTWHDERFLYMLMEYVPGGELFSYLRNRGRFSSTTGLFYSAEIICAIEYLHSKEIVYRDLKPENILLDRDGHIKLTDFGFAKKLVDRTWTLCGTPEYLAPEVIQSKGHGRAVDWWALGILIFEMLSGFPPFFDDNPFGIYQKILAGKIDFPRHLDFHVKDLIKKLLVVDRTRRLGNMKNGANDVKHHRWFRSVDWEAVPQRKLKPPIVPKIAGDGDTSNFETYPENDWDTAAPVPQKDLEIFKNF
Calls of active or inactive are those of the source.
Listed next: entries and their corresponding Ki.

// solved cases for Ki follow
O=C(Nc1cccc(C(F)(F)F)n1)Nc1ccnc2cc(OC(F)F)ccc12    > 3.16 µM (inactive)
O=c1[nH]c2cc(Br)cnc2[nH]1    12.6 µM (active)
CCC1CC(NS(=O)(=O)C2CC2)CC1c1ncc2cnc3[nH]ccc3n12 (centres undefined)    > 1.26 µM (inactive)

// below: Ki requested for another compound
Task: Entry O=C(Nc1cccc(C(F)(F)F)n1)Nc1ccnc2cc(Cl)ccc12 has what Ki?
Output: > 3.16 µM (inactive)

====

target: Prothrombin (Bos taurus, UniProt P00735); test: thrombin inhibition, dose response, biochemical, fluorescence polarization, uHTS hits (AID 602369); type: functional
The source made the active and inactive calls.
The categories you may choose from are 1 (active), 0 (inactive)

CCOc1ccc(CCNC(=O)c2nnn(CC(=O)Nc3ccc(C)cc3)c2N)cc1OCC    0
CC1=C(C(=O)c2ccccc2)C(c2ccc(N3CCOCC3)cc2)NC(=O)N1 (centres undefined)    1
CC(=O)c1cccc(NC(=O)CCc2nc3sc4c(c3c(=O)[nH]2)CCCC4)c1    1

Let us examine a further case.
Task: Hi, do you know how COc1ccc(NN=C2C(=O)CC(C)(C)CC2=O)c(OC)c1 came out in this test?
Output: 1

====

test system: H4; assay: Luminescence Cell-Based Dose Response HTS to Identify Activators of 5'UTR Stem-Loop Driven Prion Protein mRNA Translation in H4 Neuroglioblastoma Cells. [Related pubchem assays: 1829 (Project Summary), 1814 (Primary HTS)]; type: functional; conditions: Homo sapiens
Activity calls are given as the source filed them.
measured attribute: EC50

// solved cases for EC50 follow
CCCCOc1[nH]cnc2c3cc(OC)ccc3nc1-2    < 0.1 µM (active)
Cc1occc1C(=O)N/N=C/c1cccc2ccccc12    52.9 µM (active)
Nc1ncccc1OCc1ccc(Br)cc1    > 120 µM (not active)

// below: EC50 requested for another compound
Task: Lookup: EC50 / H4 / CC1CCC(NC(=O)Cn2cc3c(n2)CCCC3)CC1 (centres undefined)
Output: 4.09 µM (active)
